Where do these numbers come from? They come from patent US8716285B2.

molecular target: HDAC6 (Homo sapiens (Human)); assay: Tubulin acetylation cytoblot assay (A549 cells); settings: 17-18 h, concentration for 50% induction of acetylated tubulin, read-out: Tub-ac EC50
Sequence (Q9UBN7 whole entry): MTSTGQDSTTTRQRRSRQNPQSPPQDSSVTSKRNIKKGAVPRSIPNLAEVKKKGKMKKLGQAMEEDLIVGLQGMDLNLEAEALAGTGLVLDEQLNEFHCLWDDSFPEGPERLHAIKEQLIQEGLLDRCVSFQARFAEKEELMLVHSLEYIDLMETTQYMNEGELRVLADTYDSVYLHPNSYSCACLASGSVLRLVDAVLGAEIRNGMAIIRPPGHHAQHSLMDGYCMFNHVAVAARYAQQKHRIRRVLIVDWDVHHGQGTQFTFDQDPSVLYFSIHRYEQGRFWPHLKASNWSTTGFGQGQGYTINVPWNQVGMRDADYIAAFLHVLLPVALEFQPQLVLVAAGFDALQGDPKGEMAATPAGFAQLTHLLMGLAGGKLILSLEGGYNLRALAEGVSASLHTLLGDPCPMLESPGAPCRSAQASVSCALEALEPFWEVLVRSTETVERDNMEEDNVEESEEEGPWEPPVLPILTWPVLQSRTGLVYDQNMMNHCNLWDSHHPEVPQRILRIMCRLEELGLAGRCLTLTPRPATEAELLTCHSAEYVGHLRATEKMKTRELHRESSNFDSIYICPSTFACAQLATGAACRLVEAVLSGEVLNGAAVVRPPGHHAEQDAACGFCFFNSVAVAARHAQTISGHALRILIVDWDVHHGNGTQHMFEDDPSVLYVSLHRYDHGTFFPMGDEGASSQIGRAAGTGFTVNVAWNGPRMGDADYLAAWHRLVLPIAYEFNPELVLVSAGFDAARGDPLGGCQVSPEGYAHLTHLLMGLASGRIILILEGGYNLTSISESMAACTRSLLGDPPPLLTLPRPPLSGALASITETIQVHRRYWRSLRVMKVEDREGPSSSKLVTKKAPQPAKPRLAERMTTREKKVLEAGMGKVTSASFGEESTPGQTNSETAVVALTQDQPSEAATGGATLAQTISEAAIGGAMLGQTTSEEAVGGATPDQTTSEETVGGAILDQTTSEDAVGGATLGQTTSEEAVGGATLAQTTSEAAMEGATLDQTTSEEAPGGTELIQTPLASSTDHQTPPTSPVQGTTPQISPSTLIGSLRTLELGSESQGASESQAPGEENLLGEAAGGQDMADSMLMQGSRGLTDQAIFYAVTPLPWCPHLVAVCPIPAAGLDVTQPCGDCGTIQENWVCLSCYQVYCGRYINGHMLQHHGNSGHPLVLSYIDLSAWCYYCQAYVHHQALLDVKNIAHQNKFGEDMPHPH
I'd appreciate it if you could supply log10(EC50) values for the items below.
Short version: log10 scale, EC50, µM.

Tell me its log10(EC50) given O=C(NC1CCc2ccc(C(=O)NO)cc2C1)OCc1cccnc1 (stereo not drawn) as the entry.
-0.03

Provide only the value of recorded log10(EC50) for COc1cccc(C(=O)NC2CNc3ccc(C(=O)NO)cc3C2)c1 (stereo not drawn)
0.53

For the compound Cc1ccc(-c2ccnc(NC3CCc4ccc(C(=O)NO)cc4C3)n2)c(F)c1 (stereo not drawn) , report log10(EC50).
0.36

Please report log10(EC50) for the following compound: O=C(NO)c1ccc2c(c1)CC(NC(=O)c1cccc(Cl)c1)CN2 (stereo not drawn)
0.54

Fill in log10(EC50) for record O=C(NO)c1ccc2c(c1)CC(NS(=O)(=O)c1ccc(Cl)c(Cl)c1)CC2 (stereo not drawn)
0.53

Hello, please tell me recorded log10(EC50) for this one: O=C(NO)c1ccc2c(c1)CC(NC(=O)c1cccc(C(F)(F)F)c1)CN2 (stereo not drawn)
0.85

Report log10(EC50), nothing else, for this compound: O=C(NO)c1ccc2c(c1)CC(Nc1nccc(-c3ccc(F)c(Cl)c3)n1)CC2 (stereo not drawn)
0.78

Please report log10(EC50) for the following compound: O=C(NO)c1ccc2c(c1)CC(Nc1nccc(-c3ccc(F)cc3)n1)CC2 (stereo not drawn)
-0.01

Read the entry O=C(NO)c1ccc2c(c1)CC(NS(=O)(=O)c1ccc(Cl)cc1Cl)CC2 (stereo not drawn) and write its reported log10(EC50).
0.69

Specify log10(EC50) for CN(C)c1cccc(-c2ccnc(NC3CCc4ccc(C(=O)NO)cc4C3)n2)c1 (stereo not drawn) and stop.
0.54

Using the record for Cc1cc(Cl)ccc1-c1ccnc(NC2CCc3ccc(C(=O)NO)cc3C2)n1 (stereo not drawn) , state its measured log10(EC50).
0.98

Give a short answer stating reported log10(EC50) for CCCCS(=O)(=O)NC1CCc2ccc(C(=O)NO)cc2C1 (stereo not drawn) .
0.62

Indicate its recorded log10(EC50); the compound in question is O=C(NO)c1ccc2c(c1)CC(Nc1ccc([N+](=O)[O-])cn1)CC2 (stereo not drawn)
0.32

// fetch log10(EC50) given entry Cc1cncc(-c2ccnc(NC3CCc4ccc(C(=O)NO)cc4C3)n2)c1 (stereo not drawn)
0.18

Please list log10(EC50) recorded for the compound O=C(NO)c1ccc2c(c1)CC(Nc1nccc(-c3ccc(N4CCOCC4)nc3)n1)CC2 (stereo not drawn)
0.83

Indicate the recorded log10(EC50) value for this compound: O=C(NO)c1cc2c(cc1F)CCC(Nc1nccc(-c3cccnc3)n1)C2 (stereo not drawn)
0.81

Recall and state the measured log10(EC50) for O=C(NO)c1ccc2c(c1)CC(NC(=O)c1ccc(-c3ccccc3)cc1)CN2 (stereo not drawn) .
0.90

Entry COc1ccc(-c2ccnc(NC3CCc4ccc(C(=O)NO)cc4C3)n2)cn1 (stereo not drawn) needs its log10(EC50) filled in; supply it.
0.74

Specify log10(EC50) for O=C(NO)c1ccc2c(c1)CC(Nc1nccc(C(F)(F)F)n1)CC2 (stereo not drawn) and stop.
-0.08

Please report log10(EC50) for the following compound: O=C(NO)c1ccc2c(c1)CC(Nc1nccc(-c3cccnc3Cl)n1)CC2 (stereo not drawn)
-0.22

For the compound O=C(NO)c1ccc2c(c1)CC(Nc1nccc(-c3cnc4ccccc4c3)n1)CC2 (stereo not drawn) , give its reported log10(EC50).
0.90

Given the compound Cc1ccc(-c2ccnc(NC3CCc4ccc(C(=O)NO)cc4C3)n2)cn1 (stereo not drawn) , write its reported log10(EC50).
0.79

Output log10(EC50) of O=C(NO)c1ccc2c(c1)CC(NS(=O)(=O)c1cccnc1)CC2 (stereo not drawn)
0.79

Please indicate log10(EC50) recorded for Cc1cc(Oc2ccccc2)nc(NC2CCc3ccc(C(=O)NO)cc3C2)n1 (stereo not drawn)
0.72

Given O=C(NO)c1cc2c(cc1F)CCC(Nc1ncccn1)C2 (stereo not drawn) , respond with its log10(EC50).
0.63

Supply log10(EC50) value. Item: O=C(NO)c1ccc2c(c1)CC(NS(=O)(=O)c1ccc(Cl)cc1)CC2 (stereo not drawn)
0.03

Give the value of log10(EC50) reported for the following: CN1CC(NS(=O)(=O)c2ccc(Cl)cc2)Cc2cc(C(=O)NO)ccc21 (stereo not drawn)
1.03

Give a short answer stating reported log10(EC50) for CCOc1cc(C)nc(NC2CCc3ccc(C(=O)NO)cc3C2)n1 (stereo not drawn) .
0.23

Return value of log10(EC50) for input O=C(NO)c1ccc2c(c1)CC(Nc1ncc3cc(F)ccc3n1)CC2 (stereo not drawn) , no commentary.
-0.03

Assign log10(EC50) to the following record: O=C(NO)c1ccc2c(c1)CC(NS(=O)(=O)c1cccc(C(F)(F)F)c1)CC2 (stereo not drawn)
0.59

Look up and state reported log10(EC50) for O=C(NO)c1ccc2c(c1)CC(NC(=O)c1ccc(Cl)c(Cl)c1)CN2 (stereo not drawn)
0.73

Let me know recorded log10(EC50) for O=C(NO)c1cc2c(cc1F)CCC(NS(=O)(=O)c1cccc(Cl)c1)C2 (stereo not drawn) , thanks.
0.57

Give log10(EC50) for the following compound: COc1cncc(-c2ccnc(NC3CCc4ccc(C(=O)NO)cc4C3)n2)c1 (stereo not drawn)
0.28

Return the recorded log10(EC50) value; entry: O=C(NO)c1ccc2c(c1)CC(Nc1ccc([N+](=O)[O-])cc1)CC2 (stereo not drawn)
0.27

Consider the compound O=C(NO)c1ccc2c(c1)CC(Nc1ccc(Br)cc1)CC2 (stereo not drawn) and give its recorded log10(EC50).
0.74

Dear colleague, please send me the reported log10(EC50) for O=C(NO)c1ccc2c(c1)CC(Nc1nccc(-c3ccc(Cl)cc3Cl)n1)CC2 (stereo not drawn) when you can.
0.79
